- Assay Notes: in vitro
- Type: cell-based, human
- Measurement Context: human, 72 h; read-out: Cytotoxicity, IC50, 72 h, MCF-10A
pIC50: −log10 of the molar value.

>  <Molecule>
CO[C@@H]1[C@@H](O)[C@H](O[C@@H]2[C@@H](O)[C@H](O[C@H]3[C@H](O)[C@@H](O[C@@H]4OC[C@@H](O)[C@H](O)[C@H]4O)[C@H](O[C@H]4[C@H](O[C@H]5CC[C@]6(C)C7CC[C@]8(C)[C@@H]([C@@](C)(O)C(=O)CC=C(C)C)CC[C@@]8(C)C7=CC[C@H]6C5(C)C)OC[C@@H](OS(=O)(=O)[O-])[C@@H]4O)O[C@@H]3C)O[C@H](COS(=O)(=O)[O-])[C@H]2O)O[C@H](CO)[C@H]1O.[Na+].[Na+] (stereo partly shown) [Conicospermiumoside A3-3 (3)]

>  <pIC50>
5.28

$$$$

Data provenance is paper PMC11676834.
